System: Caco-2 cell monolayers
Assay overview: Toxin crossing and apparent permeability across Caco-2 cell monolayers (A to B), LC-MS/MS
Format: in vitro ADME, human
Condition notes: 2 h, 8 ng/mL, relative to theoretical loaded concentration
Recorded metric: % theoretical amount of toxin crossing the Caco-2 cell monolayers (%)
Give bare numbers, in %.

Field: example entries. Status: answers known.
C=CC1=CC2C3O[C@]4(CCC(O4)[C@@H](C)C[C@@H](O)C3=O)C[C@H](O)C3=NCC[C@@]32CC1 (stereo partly drawn) [Portimine, portimine] :: 8.50
C=C1CCCC2=NCC(C)C(C)CC23CCC(C(O)CCC(=O)O)=CC3C2OC3(CC(C)CC2O3)CC2OC3(CCC4(OC(CCC4(C)O)C1)O3)CC(C)C2O (stereo not drawn) [PnTX-E] :: 5.25

Proceed to the following item.
Return value of % theoretical amount of toxin crossing the Caco-2 cell monolayers for input C=C1CCCC2=NCC(C)C(C)CC23CCC(C(=O)O)=CC3C2OC3(CC4CCCC5(CCC6(OC(CCC6(C)O)C1)O5)O4)CC(C)C(O)C2O3 (stereo not drawn) [PnTX-A] , no commentary.
2.83

###

Assay overview: Toxin crossing and apparent permeability across Caco-2 cell monolayers (A to B), LC-MS/MS
Assay type: in vitro ADME, human
Condition notes: human, Caco-2; 6 h, loaded 16 ng/mL, A to B
Recorded metric: Papp at 6 h, 16 ng/mL

// worked examples, Papp at 6 h, 16 ng/mL included
C=C1CCCC2=NCC(C)C(C)CC23CCC(C(=O)O)=CC3C2OC3(CC4CCCC5(CCC6(OC(CCC6(C)O)C1)O5)O4)CC(C)C(O)C2O3 (stereo not drawn) :: 1.92 ×10⁻⁶ cm/s
C=C1CCCC2=NCC(C)C(C)CC23CCC(C(O)CCC(=O)O)=CC3C2OC3(CC(C)CC2O3)CC2OC3(CCC4(OC(CCC4(C)O)C1)O3)CC(C)C2O (stereo not drawn) :: 1.49 ×10⁻⁶ cm/s

Consider the additional molecule presented here.
Report measured Papp at 6 h, 16 ng/mL; entry is C=CC1=CC2C3OC4(CC5CCCC6(CCC7(OC(CCC7(C)O)CC(=C)CCCC7=NCC(C)C(C)CC72CC1)O6)O5)CC(C)C(O)C3O4 (stereo not drawn)
22.8 ×10⁻⁶ cm/s

###

Test system: Caco-2 cell monolayers
Assay overview: Toxin crossing and apparent permeability across Caco-2 cell monolayers (A to B), LC-MS/MS
Type: in vitro ADME, human
Condition notes: 6 h, 8 ng/mL, relative to theoretical loaded concentration
Recorded metric: % theoretical amount of toxin crossing the Caco-2 cell monolayers (%)
Give bare numbers, in %.

// below: answered compounds
C=CC1=CC2C3OC4(CC5CCCC6(CCC7(OC(CCC7(C)O)CC(=C)CCCC7=NCC(C)C(C)CC72CC1)O6)O5)CC(C)C(O)C3O4 (stereo not drawn) :: 15.17
C=C1CCCC2=NCC(C)C(C)CC23CCC(C2CCC(=O)O2)=CC3C2OC3(CC(C)CC2O3)CC2OC3(CCC4(OC(CCC4(C)O)C1)O3)CC(C)C2O (stereo not drawn) :: 8.75
C=C1CCCC2=NCC(C)C(C)CC23CCC(C(=O)O)=CC3C2OC3(CC4CCCC5(CCC6(OC(CCC6(C)O)C1)O5)O4)CC(C)C(O)C2O3 (stereo not drawn) :: 4.08
C=CC1=CC2C3O[C@]4(CCC(O4)[C@@H](C)C[C@@H](O)C3=O)C[C@H](O)C3=NCC[C@@]32CC1 (stereo partly drawn) :: 22.33
C=CC1=CC2C3OC4(CC(C)CC3O4)CC3OC4(CCC5(OC(CCC5(C)O)CC(=C)CCCC5=NCC(C)C(C)CC52CC1)O4)CC(C)C3O (stereo not drawn) :: 7.37

Item C=C1CCCC2=NCC(C)C(C)CC23CCC(C(O)CCC(=O)O)=CC3C2OC3(CC(C)CC2O3)CC2OC3(CCC4(OC(CCC4(C)O)C1)O3)CC(C)C2O (stereo not drawn) : provide % theoretical amount of toxin crossing the Caco-2 cell monolayers
2.87

Data provenance: paper PMC11766601
